system: HCT-116; test: NCI tumour cell line growth inhibition, 48 h
Activity calls are given as the source filed them. No stated cut-off is given here; in the data, active = GI50 up to about 1.1 µM and inactive = higher.
Classes used: t for active, f for inactive

# compound, group.label
rows = [
    ("COc1cc(OC)c(/C=N/N=C(\\N)NO)c(OC)c1", "f"),
    ("COc1cc(CC(C)NC(C)=O)cc(OC)c1 (configuration not stated)", "f"),
    ("CC1OC(OC2C(O[C@H]3CC[C@@]4(C)C(=CC[C@H]5[C@@H]6C[C@@H]7O[C@]8(CC[C@@H](CO)CO8)[C@@H](C)[C@@H]7[C@@]6(C)CC[C@@H]54)C3)OC(CO)C(O)C2OC2OC(CO)C(O)C(O)C2O)C(O)C(O)C1O (some centres not stated)", "f"),
    ("CC(=O)OC(C)c1cc2c(s1)C(=O)c1sccc1C2=O (configuration not stated)", "f"),
    ("CC1(C)CC(=O)c2c(nc3ccc4ccccc4c3c2-c2ccc(NC(=O)CCCC(=O)Nc3ccc(-c4c5c(nc6ccc7ccccc7c46)CC(C)(C)CC5=O)cc3)cc2)C1", "f"),
    ("CC(C)CCC[C@@H](C)[C@H]1CC[C@H]2[C@@H]3CC=C4CC(OCCCCN(O)CCCSC5OC(CO)C(O)C(O)C5O)CC[C@]4(C)[C@H]3CC[C@]12C (some centres not stated)", "f"),
    ("O=C(OC1C#CCSCC#C/C=C\\1)c1ccc2c(c1)C(=O)c1ccccc1C2=O (configuration not stated)", "f"),
    ("C=CCOC(=O)C1=C(CCC[C@@H](C)O[Si](C)(C)C(C)(C)C)N=C(N)N2[C@H](CCO)CC[C@@H]12", "f"),
    ("CCN1C[C@]2(C)CC[C@H](OC)C34C5C[C@@H]6[C@@H](OC)C[C@@](OC)(C5[C@H]6OCc5ccccc5)C(C13)[C@H](OC(C)=O)[C@@H]42 (some centres not stated)", "f"),
    ("CCN(CCCOc1ccccc1)CCN(CC)CCCOc1ccccc1", "f"),
    ("CC(C)(Br)C(=O)/C=C/c1ccccc1", "t"),
    ("O=P1(Cc2ccccc2)N(Cc2ccccc2)[C@@H]2CCCC[C@H]2N1Cc1ccccc1", "f"),
    ("COc1ccc(/C=C2\\CCC(CCN3CCOCC3)C2=O)cc1 (configuration not stated)", "f"),
    ("O=C1CC2OCC=C3CN4CCC5(C(=O)O)C(N1)C2C3CC45 (configuration not stated)", "f"),
    ("CC1(C)S[C@@H]2[C@H](NC(=O)C3(N)CCCCC3)C(=O)N2[C@H]1C(=O)O [CYCLACILLIN]", "f"),
    ("CC(C)C(O)(C(=O)OCN1C(=O)C2C3C=CC(C2C1=O)C1C2C(=O)N(COC(=O)C(O)(C(C)C)C(C)O)C(=O)C2C31)C(C)O (configuration not stated)", "f"),
    ("O=C1CCCCC(=O)Nc2ccccc2N1", "f"),
]

###

tested on: T47D; test: NCI tumour cell line growth inhibition, 48 h
Activity calls are given as the source filed them. Cut-off read from the data, not from the text of the source: active = GI50 up to about 1.1 µM and inactive = higher.
GI50 overview
reported.property: GI50

# compound, subject.of.test, observed.measurement
measured = [
    ("O=C1NN=C(c2c[nH]c3ccccc23)CC1NCc1ccccc1 (stereo not given)", "T47D", "> 100 µM (inactive)"),
    ("COP(=O)(Cc1ccccc1)Cc1ccccc1", "T47D", "> 100 µM (inactive)"),
    ("COc1c2occc2c(N)c2ccc(=O)oc12", "T47D", "> 100 µM (inactive)"),
    ("CC1=C(CCC(C)CO)O[C@H]2C[C@H]3[C@@H]4CC[C@H]5C[C@@H](O)CC[C@]5(C)[C@H]4CC(=O)[C@]3(C)[C@@H]12 (stereo not given in full)", "T47D", "7.03 µM (inactive)"),
    ("CC(Cc1ccc(Cl)cc1Cl)NO (stereo not given)", "T47D", "> 100 µM (inactive)"),
    ("COc1ccc(-c2c3c(n(C4OC(CO)C(O)C(O)C4O)c(=S)c2C#N)CCCC3)cc1 (stereo not given)", "T47D", "58.5 µM (inactive)"),
    ("N#CCCSC1SC(=C2SC3=C(SCCS3)S2)SC1SCCC#N (stereo not given)", "T47D", "> 100 µM (inactive)"),
    ("C#CCOCC12C=CC(O1)C1C(=O)N(C)C(=O)C12 (stereo not given)", "T47D", "> 100 µM (inactive)"),
    ("Cc1c(C)c2c(c(N)c1C#N)C(=O)N(NC(=S)Nc1ccccc1)C2=O", "T47D", "> 100 µM (inactive)"),
    ("Cc1cc(S(=O)(=O)Nc2nnc3c(Cl)cc(C(F)(F)F)cn23)c(S)cc1Cl", "T47D", "37.2 µM (inactive)"),
]

Taken from ChEMBL document CHEMBL1201862.
